FYI, the data here is from patent US20260216164A1.

- TARGET_OR_TEST_SYSTEM: Helios (IKZF2) (Homo sapiens, UniProt Q96SW2+Q9UKS7)
- Sequence (Q9UKS7 whole entry): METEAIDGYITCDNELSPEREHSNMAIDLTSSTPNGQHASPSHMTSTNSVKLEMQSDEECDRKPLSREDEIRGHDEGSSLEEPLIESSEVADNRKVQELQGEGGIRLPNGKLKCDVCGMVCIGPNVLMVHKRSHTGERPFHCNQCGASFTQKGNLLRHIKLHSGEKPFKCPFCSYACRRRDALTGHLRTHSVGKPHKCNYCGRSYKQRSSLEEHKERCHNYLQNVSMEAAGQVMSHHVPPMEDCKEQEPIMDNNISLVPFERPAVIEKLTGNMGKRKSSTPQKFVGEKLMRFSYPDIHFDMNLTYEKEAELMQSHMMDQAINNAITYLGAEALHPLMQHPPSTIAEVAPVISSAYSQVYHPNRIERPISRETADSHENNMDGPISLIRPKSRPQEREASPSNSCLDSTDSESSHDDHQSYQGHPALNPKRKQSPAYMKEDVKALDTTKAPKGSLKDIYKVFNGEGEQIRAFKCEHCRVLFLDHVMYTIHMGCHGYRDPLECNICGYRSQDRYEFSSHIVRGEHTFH
- Sequence (Q96SW2 whole entry): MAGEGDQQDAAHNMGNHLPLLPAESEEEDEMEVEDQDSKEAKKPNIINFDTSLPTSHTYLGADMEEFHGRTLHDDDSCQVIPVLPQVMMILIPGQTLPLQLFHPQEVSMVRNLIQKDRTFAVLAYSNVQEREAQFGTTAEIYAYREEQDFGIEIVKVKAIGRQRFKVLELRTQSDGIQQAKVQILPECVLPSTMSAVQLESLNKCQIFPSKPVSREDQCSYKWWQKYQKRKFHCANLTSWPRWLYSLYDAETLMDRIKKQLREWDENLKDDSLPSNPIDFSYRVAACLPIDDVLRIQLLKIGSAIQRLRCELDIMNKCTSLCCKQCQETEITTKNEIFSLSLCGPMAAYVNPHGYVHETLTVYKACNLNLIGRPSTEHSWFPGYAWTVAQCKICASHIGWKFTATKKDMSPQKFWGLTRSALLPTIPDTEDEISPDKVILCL
- Sequence (Q16531 whole entry partner): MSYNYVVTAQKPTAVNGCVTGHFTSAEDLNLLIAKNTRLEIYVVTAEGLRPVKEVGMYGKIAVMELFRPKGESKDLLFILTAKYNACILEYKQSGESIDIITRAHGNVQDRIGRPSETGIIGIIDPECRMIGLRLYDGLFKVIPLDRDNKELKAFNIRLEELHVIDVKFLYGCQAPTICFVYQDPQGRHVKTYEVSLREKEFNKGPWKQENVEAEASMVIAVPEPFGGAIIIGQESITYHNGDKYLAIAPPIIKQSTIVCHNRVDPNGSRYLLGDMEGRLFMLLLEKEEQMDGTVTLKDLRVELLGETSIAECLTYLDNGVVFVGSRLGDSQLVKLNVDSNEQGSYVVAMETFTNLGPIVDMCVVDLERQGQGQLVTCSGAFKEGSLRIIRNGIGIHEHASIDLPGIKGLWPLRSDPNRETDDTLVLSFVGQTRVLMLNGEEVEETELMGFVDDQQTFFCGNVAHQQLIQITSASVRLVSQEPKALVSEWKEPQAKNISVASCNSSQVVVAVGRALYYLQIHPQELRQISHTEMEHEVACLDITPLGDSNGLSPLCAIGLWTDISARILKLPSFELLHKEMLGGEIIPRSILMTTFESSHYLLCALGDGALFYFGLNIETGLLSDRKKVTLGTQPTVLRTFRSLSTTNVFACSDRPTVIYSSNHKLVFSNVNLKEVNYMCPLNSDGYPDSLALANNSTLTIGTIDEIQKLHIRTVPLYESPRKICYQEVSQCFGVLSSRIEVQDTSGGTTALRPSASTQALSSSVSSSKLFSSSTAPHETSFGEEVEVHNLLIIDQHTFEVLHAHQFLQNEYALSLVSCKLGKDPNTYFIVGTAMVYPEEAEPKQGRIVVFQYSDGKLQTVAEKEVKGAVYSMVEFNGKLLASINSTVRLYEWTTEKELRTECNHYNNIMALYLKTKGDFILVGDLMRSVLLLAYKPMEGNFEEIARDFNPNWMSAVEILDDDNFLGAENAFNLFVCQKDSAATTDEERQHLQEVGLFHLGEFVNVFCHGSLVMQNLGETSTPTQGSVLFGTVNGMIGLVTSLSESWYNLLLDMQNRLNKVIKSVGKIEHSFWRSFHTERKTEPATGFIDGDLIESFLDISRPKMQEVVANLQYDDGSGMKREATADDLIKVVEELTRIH
- TEST_PROTOCOL: Screening of Helios protein degraders using Nano-Glo HiBiT cell line (HiBiT-IKZF2)
- Format: cell-based
- ASSAY_SETUP: compound 10 μM, 6 hours, HiBiT-Helios knock-in Jurkat cells; read-out: HiBiT-IKZF2 Residual amount of Helios (%) 10 μM
MEASURED_PARAMETER: remaining activity at 10 µM

O=C1CCC(N2Cc3cc(C4CCN(C(=O)c5[nH]c6cc(Cl)ccc6c5CO)CC4)ccc3C2=O)C(=O)N1 (stereo not shown) [Compound 105]	8.5%
Cc1ccc2c(C)c(C(=O)N3CCC(c4ccc5c(c4)CN(C4CCC(=O)NC4=O)C5=O)CC3)[nH]c2c1 (stereo not shown) [Compound 69]	41.8%
COc1ccc2c(C)c(C(=O)N3CCC(c4ccc5c(c4)CN(C4CCC(=O)NC4=O)C5=O)CC3)[nH]c2c1 (stereo not shown) [Compound 42]	13%
Cc1c(C(=O)N2CCC(n3cc(-c4ccc5c(c4)CN(C4CCC(=O)NC4=O)C5=O)nn3)CC2)[nH]c2cc(Cl)ccc12 (stereo not shown) [Compound 66]	87.8%
Cc1c(C(=O)N2CC(N3CCC(c4ccc5c(c4)CN(C4CCC(=O)NC4=O)C5=O)CC3)C2)[nH]c2cc(Cl)ccc12 (stereo not shown) [Compound 63]	30.7%

Exercise: Answer with the recorded remaining activity at 10 µM for the molecule listed here: Cc1c(C(=O)N2CCC(c3ccc4c(c3)CN(C3CCC(=O)NC3=O)C4=O)CC2)[nH]c2cc(Cl)c(Cl)cc12 (stereo not shown) [Compound 72]
Key: 34.3%

Exercise: Tell us which remaining activity at 10 µM value is on record for O=C1CCC(N2Cc3cc(C4CCN(C(=O)c5cc6cnc(Cl)cc6[nH]5)CC4)ccc3C2=O)C(=O)N1 (stereo not shown) [Compound 46]
Key: 47.4%

---

- TARGET_OR_TEST_SYSTEM: Helios (IKZF2) (Homo sapiens, UniProt Q96SW2+Q9UKS7)
- TEST_PROTOCOL: Screening of Helios protein degraders using Nano-Glo HiBiT cell line (HiBiT-IKZF2)
- Assay type: cell-based
- ASSAY_SETUP: compound 10 μM, 6 hours, HiBiT-Helios knock-in Jurkat cells; read-out: HiBiT-IKZF2 Residual amount of Helios (%) 10 μM
Please assign False whenever remaining activity at 10 µM is at or above 50%, and True whenever it is below.

Worked cases, answers included:
Cc1ccc2cc(C(=O)N3CCC(c4ccc5c(c4)CN(C4CCC(=O)NC4=O)C5=O)CC3)[nH]c2c1 (centres unmarked)	False
Cc1c(C(=O)N2CCC(c3ccc4c(c3F)CN(C3CCC(=O)NC3=O)C4=O)CC2)[nH]c2c(F)c(C#N)ccc12 (centres unmarked)	True
Cc1c(C(=O)N2CCC(N3CCC(c4ccc5c(c4)CN(C4CCC(=O)NC4=O)C5=O)CC3)CC2)[nH]c2cc(Cl)ccc12 (centres unmarked)	True
Cc1c(C(=O)N2CCC(c3ccc4c(c3)CN(C3CCC(=O)NC3=O)C4=O)CC2)[nH]c2ccccc12 (centres unmarked)	True
O=C1CCC(N2Cc3cc(C4CCN(C(=O)c5cc6ccc(C(F)(F)F)cc6[nH]5)CC4)ccc3C2=O)C(=O)N1 (centres unmarked)	True
COc1cccc2cc(C(=O)N3CCC(c4ccc5c(c4)CN(C4CCC(=O)NC4=O)C5=O)CC3)[nH]c12 (centres unmarked)	False

Exercise: Find out if reported remaining activity at 10 µM for Cc1c(C(=O)N2CCC(c3ccc4c(c3F)CN(C3CCC(=O)NC3=O)C4=O)CC2)[nH]c2cc([N+](=O)[O-])ccc12 (centres unmarked) is less than 50%
Key: True

Exercise: API: query returns whether the compound falls strictly under 50% in remaining activity at 10 µM. Query: O=C1CCC(N2Cc3cc(C4CCN(C(=O)c5cc6ccc(O)cc6[nH]5)CC4)ccc3C2=O)C(=O)N1 (centres unmarked)
Key: False

Exercise: I wonder whether Cc1c(C(=O)N2CCC(c3ccc4c(c3)CN(C3CCC(=O)NC3=O)C4=O)CC2)[nH]c2cc(F)ccc12 (centres unmarked) has remaining activity at 10 µM below 50%. Can you tell?
Key: True

Exercise: Strictly below 50% in remaining activity at 10 µM? CN(C)Cc1c(C(=O)N2CCC(c3ccc4c(c3)CN(C3CCC(=O)NC3=O)C4=O)CC2)[nH]c2cc(Cl)ccc12 (centres unmarked)
Key: True

Exercise: For O=C1CCC(N2Cc3cc(C4CCN(C(=O)c5c[nH]c6cc(Cl)ccc56)CC4)ccc3C2=O)C(=O)N1 (centres unmarked) [Comparative Substance 2, reference compound] , is the recorded remaining activity at 10 µM below the cut-off of 50%?
Key: False

Exercise: Given the entry O=C1CCC(N2Cc3cc(C=C4CCN(C(=O)c5cc6ccc(Cl)cc6[nH]5)CC4)ccc3C2=O)C(=O)N1 (centres unmarked) , would its reported remaining activity at 10 µM be below 50%?
Key: False

Exercise: Is 50% strictly greater than the compound's reported remaining activity at 10 µM? compound: Cc1c(C(=O)N2CCC(c3ccc4c(c3)CN(C3CCC(=O)NC3=O)C4=O)CC2)[nH]c2c(C)c(Cl)ccc12 (centres unmarked)
Key: True

---

- TARGET_OR_TEST_SYSTEM: Helios (IKZF2) (Homo sapiens, UniProt Q96SW2+Q9UKS7)
- TEST_PROTOCOL: Screening of Helios protein degraders using Nano-Glo HiBiT cell line (HiBiT-IKZF2)
- Format: cell-based
- ASSAY_SETUP: compound 10 μM, 6 hours, HiBiT-Helios knock-in Jurkat cells; read-out: HiBiT-IKZF2 Residual amount of Helios (%) 10 μM
MEASURED_PARAMETER: remaining activity at 10 µM

Example cases with answers are listed next.
COc1ccc2cc(C(=O)N3CCC(c4ccc5c(c4)CN(C4CCC(=O)NC4=O)C5=O)CC3)[nH]c2c1 (stereo not shown) [Compound 5]	88.2%
COc1ccc2[nH]c(C(=O)N3CCC(c4ccc5c(c4)CN(C4CCC(=O)NC4=O)C5=O)CC3)cc2c1 (stereo not shown) [Compound 10]	97.3%
O=C1CCC(N2Cc3cc(C4CCN(C(=O)C5=Nc6cccc(Cl)c6C5)CC4)ccc3C2=O)C(=O)N1 (stereo not shown) [Compound 4]	106%
COc1cc2c(C)c(C(=O)N3CCC(c4ccc5c(c4)CN(C4CCC(=O)NC4=O)C5=O)CC3)[nH]c2cc1Cl (stereo not shown) [Compound 71]	25.3%
Cc1c(C(=O)N2CCC(c3ccc4c(c3)C(=O)N(C3CCC(=O)NC3=O)C4=O)CC2)[nH]c2cc([N+](=O)[O-])ccc12 (stereo not shown) [Compound 95]	10.9%

Exercise: Identify measured remaining activity at 10 µM associated with Cc1c(C(=O)N2CCC(c3ccc4c(c3)CN(C3CCC(=O)NC3=O)C4=O)CC2)[nH]c2ncccc12 (stereo not shown) [Compound 31]
Key: 94.3%

Exercise: Look up and report measured remaining activity at 10 µM for this entry: O=C1CCC(N2Cc3cc(C#CCC4CCN(C(=O)c5c[nH]c6ccccc56)CC4)ccc3C2=O)C(=O)N1 (stereo not shown) [Compound 23]
Key: 99.6%

---

- TARGET_OR_TEST_SYSTEM: Helios (IKZF2) (Homo sapiens, UniProt Q96SW2+Q9UKS7)
- TEST_PROTOCOL: Screening of Helios protein degraders using Nano-Glo HiBiT cell line (HiBiT-IKZF2)
- Type: cell-based
- ASSAY_SETUP: compound 10 μM, 6 hours, HiBiT-Helios knock-in Jurkat cells; read-out: HiBiT-IKZF2 Residual amount of Helios (%) 10 μM
Entries and their remaining activity at 10 µM
Just the number please, in %, no unit attached.

Exercise: For the compound Cc1c(C(=O)N2CCC(c3ccc4c(c3)CN(C3CCC(=O)NC3=O)C4=O)CC2)[nH]c2cc(OC(F)(F)F)ccc12 (stereo not shown) , give its measured remaining activity at 10 µM value.
Key: 7.7

Exercise: Using the record for O=C1CCC(N2Cc3cc(C4CCN(C(=O)c5[nH]c6cc(Cl)ccc6c5CN5CCOCC5)CC4)ccc3C2=O)C(=O)N1 (stereo not shown) , state its measured remaining activity at 10 µM.
Key: 7.4

Exercise: Could you please provide reported remaining activity at 10 µM for Cc1c(C(=O)N2CCC(=Cc3ccc4c(c3)CN(C3CCC(=O)NC3=O)C4=O)CC2)[nH]c2cc(Cl)ccc12 (stereo not shown) ? Thanks!
Key: 61.1

---

- TARGET_OR_TEST_SYSTEM: Helios (IKZF2) (Homo sapiens, UniProt Q96SW2+Q9UKS7)
- TEST_PROTOCOL: Screening of Helios protein degraders using Nano-Glo HiBiT cell line (HiBiT-IKZF2)
- Format: cell-based
- ASSAY_SETUP: compound 10 μM, 6 hours, HiBiT-Helios knock-in Jurkat cells; read-out: HiBiT-IKZF2 Residual amount of Helios (%) 10 μM
// classify: if (remaining activity at 10 µM < 70%) Yes else No

Solved cases below.
Cc1c(C(=O)N2CCC(c3ccc4c(c3)CN(C3CCC(=O)NC3=O)C4=O)C2)[nH]c2cc(Cl)ccc12 (stereo not shown)	No
COc1cccc2[nH]c(C(=O)N3CCC(c4ccc5c(c4)CN(C4CCC(=O)NC4=O)C5=O)CC3)cc12 (stereo not shown)	No
Nc1ccc2cc(C(=O)N3CCC(c4ccc5c(c4)CN(C4CCC(=O)NC4=O)C5=O)CC3)[nH]c2c1 (stereo not shown)	Yes
CCNC(=O)Nc1ccc2c(C)c(C(=O)N3CCC(c4ccc5c(c4)CN(C4CCC(=O)NC4=O)C5=O)CC3)[nH]c2c1 (stereo not shown)	Yes
O=C1CCC(N2Cc3cc(C4CCN(C(=O)c5cc6ccccc6[nH]5)CC4)ccc3C2=O)C(=O)N1 (stereo not shown)	No

Exercise: Determine whether this molecule shows remaining activity at 10 µM lower than 70% (ties excluded): Cc1c(C(=O)N2CCC(c3ccc4c(c3)CN(C3CCC(=O)NC3=O)C4=O)CC2)[nH]c2cc(N)ccc12 (stereo not shown)
Key: Yes

Exercise: Hi there! Is remaining activity at 10 µM for Cc1c(C(=O)N2CCC(c3ccc4c(c3)CN(C3CCC(=O)NC3=O)C4=O)CC2C)[nH]c2cc(Cl)ccc12 (stereo not shown) below 70%, do you know?
Key: Yes

Exercise: Identify whether the molecule O=Cc1c(C(=O)N2CCC(c3ccc4c(c3)CN(C3CCC(=O)NC3=O)C4=O)CC2)[nH]c2ccccc12 (stereo not shown) records remaining activity at 10 µM below 70%.
Key: Yes
